Reference for the values: PubChem BioAssay (NCI)

- Test system: LOX IMVI melanoma
- assay_protocol: NCI tumour cell line growth inhibition, 48 h
*1 amine or outer side, *2 acyl side, *3 side chain or, on linkers, in order; H or OH if unused. Where a SMILES comes first, the peptide text is derived from it. [ ]: non-standard residue; d: D form. The star is where a group is joined. X31 = CC(=O)N(C)SCC(N[*:1])C(=O)[*:2]; Fmoc = O=C(OCC1c2ccccc2-c2ccccc21)*; Cbz = O=C(OCc1ccccc1)*; Boc = CC(C)(C)OC(=O)*; Bn = c1ccc(C*)cc1
Provide the reported TGI of each item.

These solved cases illustrate the format of a correct answer.
[
  {
    "molecule": "CSC12c3cc(C)n(-c4ccccc4)c3CC(C)(C)CN1C(=O)C2Oc1ccccc1 (centres undefined)",
    "TGI": "> 100 µM"
  },
  {
    "molecule": "COc1ccc(C2=NN(C(=O)c3cc(OC)c(OC)c(OC)c3)C(c3ccc(N(C)C)cc3)C2)cc1 (centres undefined)",
    "TGI": "> 100 µM"
  },
  {
    "molecule": "CC(=O)N(C)SCC(NC(=O)C(Cc1ccccc1)NC(=O)OCc1ccccc1)C(=O)NC(Cc1ccccc1)C(=O)NC(Cc1c[nH]c2ccccc12)C(=O)NC(CCCCNC(=O)OCc1ccccc1)C(=O)NC(C(=O)NC(CSN(C)C(C)=O)C(=O)NC(C(N)=O)C(C)OCc1ccccc1)C(C)OCc1ccccc1 (centres undefined) (Cbz-F[X31]FWK(Cbz)T(Bn)[X31]T(Bn)-NH2; configuration not given here)",
    "TGI": "> 100 µM"
  },
  {
    "molecule": "NN1C(=O)C(CCO)S/C1=N/N=C1/SC(CCO)C(=O)N1N (centres undefined)",
    "TGI": "> 100 µM"
  },
  {
    "molecule": "CCCCCC/C=C1\\CCC(CN2CCOCC2)C1=O (centres undefined)",
    "TGI": "25.1 µM"
  },
  {
    "molecule": "CCOC(=O)C(NC(=O)c1ccccc1)(Nc1ccc(Cl)cc1C(F)(F)F)C(F)(F)F (centres undefined)",
    "TGI": "> 100 µM"
  },
  {
    "molecule": "O=c1ssc(Cl)c1Cl",
    "TGI": "> 10 µM"
  },
  {
    "molecule": "O=C(c1ccc(Cl)cc1)N(C(=S)OCc1ccccn1)c1ccccc1",
    "TGI": "> 100 µM"
  },
  {
    "molecule": "COc1cc(C2C(Cl)C(=O)N2NC(=O)c2ccc(N)cc2)cc(Br)c1O (centres undefined)",
    "TGI": "11 µM"
  },
  {
    "molecule": "c1ccc2c(c1)N=C(c1cccc3ccccc13)CC(c1ccc3c(c1)OCO3)S2 (centres undefined)",
    "TGI": "> 100 µM"
  }
]

Need TGI for each of these molecules.
1. CC(C)(C)CC(N)=O
2. Clc1ccc(-c2c(C3=NCCCN3)nnn2-c2ccccc2)cc1
3. Clc1ccc(OCc2nnc3n2N=C(c2ccc(Cl)cc2Cl)CS3)cc1
4. CC1=CC(N2C(=O)C(C)=CC2O)NC1=O (centres undefined)
5. CCOC(=O)c1[nH]cc(C)c1-c1ccc2c(-c3ccccc3)nc3ccccc3n12
6. CC(C)(C)OC(=O)NCCCCC(NC(=O)C(Cc1c[nH]c2ccccc12)NC(=O)OCC1c2ccccc2-c2ccccc21)C(=O)N1CCCC1C(=O)NCC(N)=O (centres undefined) (Fmoc-WK(Boc)PG-NH2; configuration not given here)

Out:
1. > 100 µM
2. 55.7 µM
3. 30.9 µM
4. > 100 µM
5. 12.3 µM
6. > 100 µM

* * *

Assign TGI to each entry below.
- Tested on: T-47D breast
- assay_protocol: NCI tumour cell line growth inhibition, 48 h

For every item below, please supply its TGI.
1. CCOC(=O)C(NC(=O)c1ccccc1)(Nc1ccc(Cl)cc1C(F)(F)F)C(F)(F)F (stereo not given)
2. CCOC(=O)c1c2c(c(O)c3ccccc3c(O)n(Cc3ccccc3)c1C)C(=O)C=CC2=O
3. COc1cc(C(=O)N/N=C/c2ccc(N(C)C)cc2)cc(OC)c1OC
4. O=C1CC(=O)NC(=NNS(=O)(=O)c2ccccc2)N1
5. COC(=O)C1=C(C)C=C(N2CCOCC2)C(C(=O)OC)C1c1ccccc1 (stereo not given)

Out:
> 45.6 µM
> 100 µM
> 100 µM
> 100 µM
> 10 µM

* * *

- System: SF-295 CNS
- assay_protocol: NCI tumour cell line growth inhibition, 48 h
Assign TGI to each entry below.
Answers are plain numbers, in µM.

Known TGI results, listed for orientation:
[
  {
    "molecule": "C=C[C@]1(C)CCC2=C(CCC3C2(C)CCC[C@@]3(C)COC(C)=O)C1 (some centres undefined)",
    "system_tested": "SF-295 CNS",
    "unit_spec": "µM",
    "measured_result": 32.5
  },
  {
    "molecule": "CN1CCN(c2ccc3nc(-c4ccc5nc(-c6ccc(O)cc6)[nH]c5c4)[nH]c3c2)CC1",
    "system_tested": "SF-295 CNS",
    "unit_spec": "µM",
    "measured_result": 678
  },
  {
    "molecule": "Clc1ccc(-c2cc(-c3ccccc3)nc(NCCNc3ccnc4cc(Cl)ccc34)n2)cc1",
    "system_tested": "SF-295 CNS",
    "unit_spec": "µM",
    "measured_result": 3.52
  }
]

Consider the record given below.
In: Return TGI for the following molecule: CC1(C)[C@@H](OC(=O)CCC(=O)O)CC[C@]2(C)[C@H]3C(=O)C=C4[C@@H]5C[C@@](C)(C(=O)O)CC[C@]5(C)CC[C@@]4(C)[C@]3(C)CC[C@@H]12
Out: 65

* * *

Would you mind telling me the reported GI50 of each entry?
- Tested on: UO-31 renal
- assay_protocol: NCI tumour cell line growth inhibition, 48 h

Example entries and their recorded answers appear below.
[
  {
    "molecule": "COc1cc(-c2cc(-c3cc(OC)c(OC)c(OC)c3)nc3nc(N)[nH]c(=O)c23)ccc1Oc1ccnc2cc(Cl)ccc12",
    "GI50": "3.45 µM"
  },
  {
    "molecule": "COc1ccc(/C=C2\\C=C(c3ccccc3)N(CCc3ccccc3)C2=O)cc1OC",
    "GI50": "4.35 µM"
  },
  {
    "molecule": "Cn1c(=O)c(Oc2ccc(F)cc2F)cc2cnc(NC3CCS(=O)(=O)CC3)nc21",
    "GI50": "> 25 µM"
  }
]

// each molecule listed below needs its GI50
1. CN1CCN(c2ccc3nc(-c4ccc5nc(-c6ccc(O)cc6)[nH]c5c4)[nH]c3c2)CC1
2. Clc1cc(Cl)cc(N2N=C(c3cccc(Nc4ccncc4)c3)CC2c2ccc3c(c2)OCO3)c1 (stereo not given)

Out:
10.6 µM
1.36 µM

* * *

- System: ACHN renal
- assay_protocol: NCI tumour cell line growth inhibition, 48 h
measure_name: TGI

Can you give me TGI for all of these, one by one?
1. COc1ccc(/C=C2\CCC/C(=C\c3ccc(O)c(CN4CCCCC4)c3)C2=O)cc1
2. Cc1ccc(Cl)c(Nc2ccccc2C(=O)O)c1Cl
3. O=S(=O)(/N=c1/scc(-c2ccccc2)n1-c1ccccc1)c1ccc(N2N=C3c4ccccc4CC3C2c2cccs2)cc1 (centres undefined)
4. COc1ccc(C2C=C(c3ccc4c(c3)OCO4)Oc3c2c(=O)oc2ccccc32)cc1OC (centres undefined)

Out:
> 82.7 µM
> 100 µM
> 100 µM
> 100 µM

* * *

- System: U251 CNS
- assay_protocol: NCI tumour cell line growth inhibition, 48 h
measure_name: TGI

# example entries with known answers
[
  {
    "compound": "COc1cccc(N(CN2C(=O)CCC2C(=O)O)C(C)=O)c1 (stereo not drawn)",
    "system_tested": "U251 CNS",
    "TGI": "> 100 µM"
  },
  {
    "compound": "O=c1cn[nH]c(=S)n1/N=C/c1c[nH]c2ccccc12",
    "system_tested": "U251 CNS",
    "TGI": "> 100 µM"
  }
]

Now examine the next entry.
In: Supply measured TGI of COC(=O)[C@H](Cc1ccc(OC(C)(C)C)cc1)N[C@H](C)C(=O)N[C@@H](Cc1ccccc1)C(=O)OCc1ccccc1 in your reply.
Out: > 100 µM

* * *

For each record, write down the corresponding TGI.
- System: HOP-92 NSCLC
- assay_protocol: NCI tumour cell line growth inhibition, 48 h

Recorded TGI, per entry:
[
  {
    "molecule": "COC1OC(COC(=O)c2cc(O)c(O)c(O)c2)C(OC(=O)c2cc(O)c(O)c(O)c2)C(OC(=O)c2cc(O)c(O)c(O)c2)C1OC(=O)c1cc(O)c(O)c(O)c1 (stereo not drawn)",
    "system_tested": "HOP-92 NSCLC",
    "measure_name": "TGI",
    "measured_result": "> 100 µM"
  },
  {
    "molecule": "O=C(Nc1n[nH]c2nnc(-c3cccnc3)cc12)C1CC1",
    "system_tested": "HOP-92 NSCLC",
    "measure_name": "TGI",
    "measured_result": "> 25 µM"
  }
]

In: Give recorded TGI. O=C(O)CC(Sc1ccccc1)c1ccccc1 (stereo not drawn)
Out: > 100 µM
